Examples of compounds with documented MIC follow.
# Test system: Pro. vulgaris GN3027
# test name: Antibacterial activity (MIC), agar dilution
# Format: cell-based
# measurement context: Proteus vulgaris, GN3027, 20 h, Pro. vulgaris GN3027; 10^6 cells per ml; 37° C., 20 hours; read-out: MIC
Hi! Could you send only the number? It should be in µg/mL, unit omitted.

Sample answers from the record:
CN(C)c1ccc(-c2cc(=O)c(C(=O)O)cn2-c2ccccc2F)cc1 | 0.78
O=C(O)c1cn(-c2ccc(F)cc2)c(-c2ccc(Cl)cc2)cc1=O | 0.39

With those in mind, consider the next compound.
Q: Report measured MIC; entry is Cc1cc(O)ccc1-n1cc(C(=O)O)c(=O)cc1-c1ccc2[nH]ccc2c1
Ans: 0.2
